- MEASUREMENT NOTES: Cmax in Sprague-Dawley rat at 25 mg/kg administered via oral gavage measured up to 72 hrs by LC/MS analysis
- Assay type: ADME, organism-based
- Parameters: dose 25 mg/kg, route oral
- DETAILS: in vivo
MEASURED METRIC: Cmax (ng/mL)

P = CCC(=O)N1CC[C@H](N2C(=O)N(c3cc(OC)ccc3Cl)Cc3cnc(Nc4ccc(N5CCN(C)CC5)c(C)c4)nc32)C1
Q = CCC(=O)N1CC[C@H](N2C(=O)N(c3cc(OC)ccc3F)Cc3cnc(Nc4ccc(N5CCN(C)CC5)c(C)c4)nc32)C1
R = CCC(=O)N1CC[C@H](N2C(=O)N(c3cc(OC)ccc3Cl)Cc3cnc(Nc4ccc(N5CCN(C6COC6)CC5)c(C)c4)nc32)C1
Task for the reader: rank each entry by its Cmax, from the minimum upward. Answer format: the labels, ordered as requested. Q, P, R
(Q: 396 ng/mL, P: 988 ng/mL, R: 2520 ng/mL)

----------
- TESTED SYSTEM: Macrophage colony-stimulating factor 1 receptor (Homo sapiens, UniProt P07333)
- Sequence (P07333 whole entry, the tested form may be a part): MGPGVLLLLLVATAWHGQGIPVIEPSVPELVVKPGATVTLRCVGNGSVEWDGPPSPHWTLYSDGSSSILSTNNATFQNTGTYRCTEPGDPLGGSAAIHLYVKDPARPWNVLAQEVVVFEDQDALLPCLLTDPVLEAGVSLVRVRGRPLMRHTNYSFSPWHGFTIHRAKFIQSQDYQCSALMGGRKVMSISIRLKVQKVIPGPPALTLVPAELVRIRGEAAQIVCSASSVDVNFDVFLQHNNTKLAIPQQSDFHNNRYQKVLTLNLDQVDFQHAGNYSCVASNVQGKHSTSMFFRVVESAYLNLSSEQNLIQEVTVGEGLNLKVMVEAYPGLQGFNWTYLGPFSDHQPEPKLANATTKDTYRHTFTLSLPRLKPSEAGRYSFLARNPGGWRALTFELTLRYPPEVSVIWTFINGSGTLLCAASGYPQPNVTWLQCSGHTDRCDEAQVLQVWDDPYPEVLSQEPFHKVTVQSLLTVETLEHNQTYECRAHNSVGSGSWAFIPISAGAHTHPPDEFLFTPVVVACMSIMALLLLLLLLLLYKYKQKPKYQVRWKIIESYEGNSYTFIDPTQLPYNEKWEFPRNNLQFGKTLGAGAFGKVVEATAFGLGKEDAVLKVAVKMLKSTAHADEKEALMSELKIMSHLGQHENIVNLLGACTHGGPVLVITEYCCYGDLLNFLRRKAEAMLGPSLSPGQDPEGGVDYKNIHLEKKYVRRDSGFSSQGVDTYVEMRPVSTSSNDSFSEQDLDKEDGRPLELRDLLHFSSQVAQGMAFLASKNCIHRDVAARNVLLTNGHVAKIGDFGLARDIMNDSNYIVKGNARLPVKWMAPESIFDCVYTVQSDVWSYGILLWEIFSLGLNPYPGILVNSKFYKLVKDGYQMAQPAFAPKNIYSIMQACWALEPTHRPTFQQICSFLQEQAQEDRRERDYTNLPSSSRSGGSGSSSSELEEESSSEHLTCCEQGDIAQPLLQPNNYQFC
- MEASUREMENT NOTES: Inhibition of recombinant human His-tagged CSF1R cytoplasmic domain (538 to 910 residues) expressed in baculovirus using tyr4 peptide as substrate after 1 hr by FRET-based Z'-Lyte assay
MEASURED METRIC: IC50 (nM)

1) CCC(=O)N1CC[C@H](N2C(=O)N(c3cc(OC)ccc3F)Cc3cnc(Nc4ccc(N5CCC(N(C)C)CC5)c(C)c4)nc32)C1; 4.7
2) CCC(=O)N1CC[C@H](N2C(=O)N(c3cc(OC)ccc3F)Cc3cnc(Nc4ccc(N5CCN(C)CC5)cc4OC)nc32)C1; 30.4
3) CCC(=O)N1CC[C@H](N2C(=O)N(c3ccc(C)cc3)Cc3cnc(Nc4ccc(N5CCN(C)CC5)c(C)c4)nc32)C1; 20.6
4) CCC(=O)N1CC[C@H](N2C(=O)N(c3cccc(OC)c3Cl)Cc3cnc(Nc4ccc(N5CCN(C)CC5)c(C)c4)nc32)C1; 4.4
5) CCC(=O)N1CC[C@H](N2C(=O)N(c3cc(OC)ccc3F)Cc3cnc(Nc4ccc(N5CCN(C)[C@@H](C)C5)c(C)c4)nc32)C1; 7.2

P = CCC(=O)N1CC[C@H](N2C(=O)N(c3cc(OC)ccc3F)Cc3cnc(Nc4ccc(N5CCN(C)CC5)c(F)c4)nc32)C1
Q = CCC(=O)N1CC[C@H](N2C(=O)N(c3ccccc3F)Cc3cnc(Nc4ccc(N5CCN(C)CC5)c(C)c4)nc32)C1
// pick larger IC50 from pair: P vs Q Write down the label attached to your selection. P
(P: 17.1 nM, Q: 5.2 nM)

----------
- TESTED SYSTEM: Macrophage colony-stimulating factor 1 receptor (Homo sapiens, UniProt P07333)
- MEASUREMENT NOTES: Inhibition of recombinant human His-tagged CSF1R cytoplasmic domain (538 to 910 residues) expressed in baculovirus using tyr4 peptide as substrate after 1 hr by FRET-based Z'-Lyte assay
pIC50: −log10 of the molar value.
MEASURED METRIC: pIC50

Consider the following illustrative entries.
1. CCC(=O)N1CC[C@H](N2C(=O)N(c3ccc(OC)cc3)Cc3cnc(Nc4ccc(N5CCN(C)CC5)c(C)c4)nc32)C1; 8.24
2. CCC(=O)N1CC[C@H](N2C(=O)N(c3cc(OC)ccc3F)Cc3cnc(Nc4ccc(N5CCN(C(C)=O)CC5)c(C)c4)nc32)C1; 7.59
3. CCC(=O)N1CC[C@H](N2C(=O)N(c3cccc(OC)c3F)Cc3cnc(Nc4ccc(N5CCN(C)CC5)c(C)c4)nc32)C1; 8.35

P = CCCN1CC[C@H](N2C(=O)N(c3ccccc3Cl)Cc3cnc(Nc4ccc(N5CCN(C)CC5)c(C)c4)nc32)C1
Q = CCC(=O)N1CC[C@H](N2C(=O)N(c3cc(OC)ccc3F)Cc3cnc(Nc4ccc(N5CC6(CCN(C)CC6)C5)c(C)c4)nc32)C1
R = CCC(=O)N1CC[C@H](N2C(=O)N(c3ccc(F)cc3)Cc3cnc(Nc4ccc(N5CCN(C)CC5)c(C)c4)nc32)C1
Arrange the 3 molecules from largest to smallest pIC50. Answer format: the labels, ordered as requested. Q, R, P
